test system: MS2 coat protein; assay: apparent KD of MS2 coat protein; designed switch direction (-1 OFF switch, 1 ON switch): 1; higher = weaker reporter binding; conditions: Eterna round: R98; input ligand: none
Lab note: class by apparent KD of MS2 coat protein, see bottom bin: < 200 nM; middle bin: ≥ 200 nM and < 800 nM; top bin: ≥ 800 nM

Would you mind sorting AAAUAAAAUAUAGGAUAUGGAAACAUGAGGAUCACCCAUGUAAAAUAAAAUAAAUAAUAAUAUAACCAGAAGGAUAAAAUAAAA [LRO001_SS NG 2] into the appropriate category?
bottom bin

Hi, small favor: classify UGGGAAUGAACAUGAGGAUCACCCAUGUCCCGGAAACGGAAUGAGGAUAUCCAUAGCAAAGCUAUGGAGAAGGCAUGGGUCCCA [SaneState 20 - Jieux - Same State NG 2] by its apparent KD of MS2 coat protein when you get a moment.
middle bin

Dear colleague, I would appreciate it if you could identify the bin for GCGCGCGGUUGAGGAUAUUUGCGUGCGGAUCGCCCGCGCACAUGAGGAUCACCCAUGUACGAGUAGGAGAAGGUGGCCCGUGUG [Same StateNG2] and reply at your convenience.
middle bin

// bin(item) where item = UCAACAAGGUGAGGAUAUGCACAGGAUCACCGUGUAGAAGGCAUCAGGUAGAAGGUGCAGAGGAUCACCCUGUAAGGAUAUACA [pwkr2 ssNG1 DX.9]
top bin

Which band does GGCGACGGUGUAGGAUAUGUGGGUUUCAAAGGGAUAGAAGGAUAGUUGGGAAUUAGGACAAGCAAACAUGAGGAUCACCCAUGU [Same STate NG 1] fall in?
bottom bin

Into which category would you place GUCCCAGUCACAGGAUAUGGCUCCGUAACGGAACCAGAAGGGUGAUAUUCAGAAAACACACAUGAGGAUCACCCAUGUAAUAAA [Tiorbiti] ?
middle bin

Lab note: which band did GCUUGCGACGCAGGAUAUGGGUGCCUAAACACGAGGAUCACCCGUGUAAAGGAAGCGAAAAGCUCUCAGAAGGGCGUCGCAGGC [United States 7 - Jieux - Same State NG 2] land in?
bottom bin

Classify this sequence: AUUAACGGAGCUACAUGAGGAUCACCCAUGUACGGGUGAUCCUAGGAUAUGCCCGCAACUGUGUCGCAGAAGGAGGGUUGCCCA [Soterixe]
bottom bin

Each sequence maps to one class by apparent KD of MS2 coat protein. Which class for UAAUUAUGGUGAGGAUAUGCACAGGAUCACCGUGUAGAAGGCAUCAGGUAGAAGGUGCAGAGGAUCACCCUGUAAGGAUAUAUC [pwkr2 ssNG1 DX.18] ?
middle bin

Categorize the following entry: AGUUACAAACUCAACAUGAGGAUCACCCAUGUACUCUCAUGUAAGGAUAUACAUUCGUAUAGAAAGUAGAAGGUACUAAUUAUG [JR_SSNG3_Sub90]
middle bin

Hello team, could you let me know which band the following sequence falls into: UGGAUCAAUACAGGAUAUGGUGACGCACAUGAGGAUCACCCAUGUCCGCAGCGUGCUAAGCACGCCCAGAAGGGUAUUGACUUG [Enxe]
top bin

Hi, small favor: classify AAUAGUGGCGUAGGAUAUCUGCGUACAUGAGGAUCACCCAUGUCUCCCAGCUGCUGAGCUGGGACAGAGAAGGGCGACCGCAUA [Digece] by its apparent KD of MS2 coat protein when you get a moment.
middle bin
